Data provenance: paper PMC10397247

As shown below, each of these binders has a reported interaction score value.
- Measured On: T1, 4H_BCR
- T1 chain: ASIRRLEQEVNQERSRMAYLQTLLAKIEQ
- Protocol Description: two-hybrid library CCmax;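 also: natural log of median RNA to DNA barcode read ratio; higher means stronger binding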
- Test Context: mean of both orientations

Look over these answered cases.
- Binder: "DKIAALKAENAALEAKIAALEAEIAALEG [4H2721-AA]"
  interaction score: -1.38
- Binder: "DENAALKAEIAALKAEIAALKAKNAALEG [4H1615-AA]"
  interaction score: -1.79

Given item DEIAALEAKIAALKAENAALKAENAALEG [4H347-AA] , the value recorded as its interaction score is -1.88

Given item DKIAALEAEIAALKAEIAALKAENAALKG [4H2124-AA] , the value recorded as its interaction score is -2.09

Given item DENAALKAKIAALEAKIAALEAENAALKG [4H1828-AA] , the value recorded as its interaction score is -2.28

Given item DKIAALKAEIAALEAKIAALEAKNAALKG [4H2600-AA] , the value recorded as its interaction score is -1.4

Given item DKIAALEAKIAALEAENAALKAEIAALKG [4H2330-AA] , the value recorded as its interaction score is -2.26
